These measurements were taken from ChEMBL document CHEMBL6114989.

Experiment: Metabolic stability in mouse liver microsome assessed as hepatic extraction ratio in presence of NADPH measured upto 60 mins by LC-MS/MS analysis
Assay type: ADME
Details: liver microsomes, read-out: ERH
Please go through the items and note down their hepatic extraction ratio at 1 h.
// return a plain number; no unit text

Reported hepatic extraction ratio at 1 h, molecule CN1CC[C@@]23CCCC[C@@H]2[C@@H]1Cc1ccc(N)cc13 : ____
0.423

Looking for the measured hepatic extraction ratio at 1 h of CC(=O)Nc1ccc2c(c1)[C@]13CCCC[C@@H]1[C@H](C2)N(C)CC3 , can you help?
0.281

====

Assignment: determine reported half-life for the given molecules.
Assay: Metabolic stability in human liver microsome assessed as half life in presence of NADPH measured upto 60 mins by LC-MS/MS analysis
Type: ADME
Conditions: liver microsomes
Response body: numeric value in h, unit text excluded.

Which half-life value belongs to COc1ccc2c(c1)[C@]13CCCC[C@@H]1[C@H](C2)N(C)CC3 ?
2.32

Bench note: what half-life did CN1CC[C@@]23CCCC[C@@H]2[C@@H]1Cc1ccc(N)cc13 show?
2.08

====

Experiment: Half life in ICR mouse at 10 mg/kg, po measured upto 24 hrs by LC-MS/MS analysis
Format: ADME, organism-based
Conditions: in vivo
MEASURED_QUANTITY: half-life (h)
Give your result in h as a bare value.

Which measured half-life value corresponds to CC(=O)Nc1ccc2c(c1)[C@]13CCCC[C@@H]1[C@H](C2)N(C)CC3 ?
0.86

Please look up its half-life: COc1ccc2c(c1)[C@]13CCCC[C@@H]1[C@H](C2)N(C)CC3
3.17

Quick one: half-life of CN1CC[C@@]23CCCC[C@@H]2[C@@H]1Cc1ccc(N)cc13 ?
3.24

====

Assay: Half life in ICR mouse at 10 mg/kg, ip measured upto 24 hrs by LC-MS/MS analysis
Format: ADME, organism-based
Conditions: in vivo
So I've got a bunch of molecules here, and I need their half-life values.

Find the recorded half-life belonging to CC(=O)Nc1ccc2c(c1)[C@]13CCCC[C@@H]1[C@H](C2)N(C)CC3 and report it.
0.74 h

What value of half-life has been reported for the following molecule? COc1ccc2c(c1)[C@]13CCCC[C@@H]1[C@H](C2)N(C)CC3 [DEXTROMETHORPHAN]
1.93 h

Suppose we examine the molecule CN1CC[C@@]23CCCC[C@@H]2[C@@H]1Cc1ccc(N)cc13 ; what half-life value has been reported?
2.92 h

====

Assay: Metabolic stability in mouse liver microsome assessed as intrinsic clearance in presence of NADPH measured upto 60 mins by LC-MS/MS analysis
Type: ADME
Settings: liver microsomes, read-out: CLH
MEASURED_QUANTITY: CLint scaled
The reply should read as a number followed by its unit.

If you can, please state the reported CLint scaled value of COc1ccc2c(c1)[C@]13CCCC[C@@H]1[C@H](C2)N(C)CC3 .
360 mL/min/kg

Consider the compound CC(=O)Nc1ccc2c(c1)[C@]13CCCC[C@@H]1[C@H](C2)N(C)CC3 and give its measured CLint scaled.
35.1 mL/min/kg

Given CN1CC[C@@]23CCCC[C@@H]2[C@@H]1Cc1ccc(N)cc13 , state its recorded CLint scaled.
68.4 mL/min/kg

====

Assay: Metabolic stability in human liver microsome assessed as hepatic clearance in presence of NADPH measured upto 60 mins by LC-MS/MS analysis
Format: ADME
Conditions: liver microsomes
Exercise: state measured CLhep predicted for each of the compounds provided.
Return type: number; implicit unit mL/min/kg.

Looking for the measured CLhep predicted of CN1CC[C@@]23CCCC[C@@H]2[C@@H]1Cc1ccc(N)cc13 , can you help?
11

Reported CLhep predicted, compound COc1ccc2c(c1)[C@]13CCCC[C@@H]1[C@H](C2)N(C)CC3 : ____
10.5
